Item-by-item account of pKd
Target: T1, PUF4 RNA-binding domain (Saccharomyces cerevisiae, UniProt P25339 537-888)
T1 sequence: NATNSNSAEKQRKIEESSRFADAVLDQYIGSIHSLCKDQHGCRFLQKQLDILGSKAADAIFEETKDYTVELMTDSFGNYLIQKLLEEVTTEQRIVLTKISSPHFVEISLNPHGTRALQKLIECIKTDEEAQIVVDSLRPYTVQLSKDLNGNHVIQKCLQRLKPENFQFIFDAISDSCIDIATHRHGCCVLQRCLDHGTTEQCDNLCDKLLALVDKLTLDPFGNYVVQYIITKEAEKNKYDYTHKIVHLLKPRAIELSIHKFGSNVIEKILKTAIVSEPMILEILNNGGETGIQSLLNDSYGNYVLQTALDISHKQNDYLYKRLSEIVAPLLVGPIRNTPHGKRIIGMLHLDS
Assay: Mg; RNA-MaP; 20 mM Na-HEPES pH 7.4, 30 mM KOAc, 0.75 mM MgCl2, 0.1% Tween-20, 5% glycerol, 0.1 mg/mL BSA, 2 mM DTT; 25 C; 0.0125-409.6 nM protein
Settings: tags: N-His6-TEV cleaved; C-SNAP kept, Cy3B-labelled; label: tethered on chip by stalled RNA polymerase
Entry type: numeric. Quantity: pKd, the -log10 of concentration in molar units.

Field: example entries. Status: answers known.
• Ic_S4_P4E.1_K4.1_C4.1_H4.1_A4.1_[T7C]_F4.1_[T8G]_[A9T]_T4.1 (ssRNA) RNA: UUUGACAACUGAUCGUUCUUUCUUGUAUACGUUUCUUUCUCGAUCAGUUGUCUUU = 7.56
• Ic_S4_P3E.1_K3.1_C3.1_H3.1_A3.1_[T5C]_[A6T]_F3.1_[T7G]_[A8G]_T3.1 (ssRNA) RNA: UUUGACAACUGAUCGUUCUUUCUUGUACUGGUUCUUUCUCGAUCAGUUGUCUUU = 5.74

Let's switch to this binder now.
Can you look up the measured pKd of UCUCUUUGUAGUAUUUCUCUU (ssRNA) [Ic_S1_P4E.1_K4.1_C4.1_H4.1_A4.1_[T5G]_[A6T]_[T7A]_F4.1_[A9T]_T4.1] for me?
6.53
